# Tested on: PIK3CA (human), P42336 [E545A]
# Sequence (P42336 whole entry E545A, looked up): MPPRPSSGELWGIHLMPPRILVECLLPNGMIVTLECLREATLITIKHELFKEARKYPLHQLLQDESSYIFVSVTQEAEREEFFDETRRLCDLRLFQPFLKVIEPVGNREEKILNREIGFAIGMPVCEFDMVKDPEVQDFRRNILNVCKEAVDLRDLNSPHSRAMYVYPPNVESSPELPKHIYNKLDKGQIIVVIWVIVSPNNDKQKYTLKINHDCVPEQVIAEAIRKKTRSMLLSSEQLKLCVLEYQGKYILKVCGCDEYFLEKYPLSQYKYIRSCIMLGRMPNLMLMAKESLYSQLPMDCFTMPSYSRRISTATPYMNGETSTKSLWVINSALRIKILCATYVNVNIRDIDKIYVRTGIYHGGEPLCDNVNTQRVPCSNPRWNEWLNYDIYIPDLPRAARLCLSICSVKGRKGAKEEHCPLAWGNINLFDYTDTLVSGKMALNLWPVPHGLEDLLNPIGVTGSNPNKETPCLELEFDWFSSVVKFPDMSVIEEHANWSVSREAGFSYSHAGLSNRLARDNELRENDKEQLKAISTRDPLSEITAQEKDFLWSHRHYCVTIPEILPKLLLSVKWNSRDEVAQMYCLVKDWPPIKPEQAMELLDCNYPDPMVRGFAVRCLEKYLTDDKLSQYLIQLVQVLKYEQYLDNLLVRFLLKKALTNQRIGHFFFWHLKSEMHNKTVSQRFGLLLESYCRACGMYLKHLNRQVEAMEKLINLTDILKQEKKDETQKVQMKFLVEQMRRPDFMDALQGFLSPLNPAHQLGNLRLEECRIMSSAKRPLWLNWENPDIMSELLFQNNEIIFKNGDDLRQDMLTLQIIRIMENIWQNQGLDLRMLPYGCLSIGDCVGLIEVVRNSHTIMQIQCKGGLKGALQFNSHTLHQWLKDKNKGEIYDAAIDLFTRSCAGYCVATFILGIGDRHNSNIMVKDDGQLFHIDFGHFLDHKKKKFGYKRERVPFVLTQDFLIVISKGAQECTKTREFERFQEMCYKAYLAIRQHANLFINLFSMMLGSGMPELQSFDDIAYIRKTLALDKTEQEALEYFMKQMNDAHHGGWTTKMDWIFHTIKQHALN
# PROTOCOL NOTES: KINOMEscan competition binding
# CONDITION SET: compound 10.0 µM
Classify by kinase still bound, per cent of control. Ranges: low = under 20%, medium = from 20% up to 90%, high = 90% and over

Worked cases, answers included:
{"RECORD SMILES": "O=C1NC(=O)/C(=C/c2ccc3nccc(-c4ccncc4)c3c2)S1", "ASSIGNED LABEL": "low"}
{"RECORD SMILES": "CCOc1cc2ncc(C#N)c(Nc3ccc(OCc4ccccn4)c(Cl)c3)c2cc1NC(=O)/C=C/CN(C)C", "ASSIGNED LABEL": "high"}
{"RECORD SMILES": "CCCS(=O)(=O)Nc1ccc(F)c(C(=O)c2c[nH]c3ncc(-c4ccc(Cl)cc4)cc23)c1F", "ASSIGNED LABEL": "high"}
{"RECORD SMILES": "CN(C)C/C=C/C(=O)Nc1ccc(C(=O)Nc2cccc(Nc3nccc(-c4cccnc4)n3)c2)cc1", "ASSIGNED LABEL": "high"}
{"RECORD SMILES": "CC(=O)c1c(C)c2cnc(Nc3ccc(N4CCNCC4)cn3)nc2n(C2CCCC2)c1=O", "ASSIGNED LABEL": "low"}
{"RECORD SMILES": "COc1cc2ncnc(-n3nc(-c4ccccn4)nc3N)c2cc1OC", "ASSIGNED LABEL": "low"}
{"RECORD SMILES": "COc1cc(N2CCN(C)CC2)ccc1Nc1nc(N)c(C(=O)c2c(Cl)cccc2Cl)s1", "ASSIGNED LABEL": "high"}
{"RECORD SMILES": "C[C@@H](Oc1cc(-c2cnn(C3CCNCC3)c2)cnc1N)c1c(Cl)ccc(F)c1Cl", "ASSIGNED LABEL": "medium"}
{"RECORD SMILES": "C=CC(=O)Nc1cc(-n2c(=O)ccc3cnc4ccc(-c5cn[nH]c5)cc4c32)ccc1C", "ASSIGNED LABEL": "medium"}
{"RECORD SMILES": "COc1cc(C(=O)NC2CCN(C)CC2)ccc1Nc1ncc2c(n1)N(C1CCCC1)CCC(=O)N2C(C)C", "ASSIGNED LABEL": "high"}

*Q* Tag the class for "CCN1CCN(C(=O)Cc2ccc(Nc3ncc(F)c(Nc4ccc(C(=O)Nc5ccccc5Cl)cc4)n3)cc2)CC1"
*A* medium

*Q* Tag the class for "O=C(Nc1cccc(Nc2ncc(Br)c(NCCc3cnc[nH]3)n2)c1)N1CCCC1"
*A* high

*Q* Tag the class for "O=C(NOC[C@H](O)CO)c1ccc(F)c(F)c1Nc1ccc(I)cc1F"
*A* medium

*Q* Tag the class for "COc1ccc(N(C(=O)Oc2c(C)cccc2C)c2ccnc(Nc3ccc(N4CCN(C)CC4)cc3)n2)c(OC)c1"
*A* medium

*Q* Tag the class for "N#Cc1cc(-c2ccnc(Nc3ccc(-n4cnc(-c5cccnc5)n4)cc3)n2)cc(N2CCOCC2)c1"
*A* medium

*Q* Tag the class for "COc1cc2c(Nc3ccc(NC(=O)c4ccccc4)cc3)ncnc2cc1OCCCN1CCOCC1"
*A* low
